// reported viability at 28.5 h, 10 µM per item
# procedure summary: in vitro
# stated conditions: human, hela cells, % viability
measured endpoint: viability at 28.5 h, 10 µM

[
  {
    "compound": "Cc1nnc(SCC(=O)NCc2c(C)c(Cl)cc(C(C)C)c2O)s1 [CBK269662]",
    "measured endpoint": "viability at 28.5 h, 10 µM",
    "reported result": "86.1%"
  },
  {
    "compound": "O=C(N[C@H]1CCN2C(=O)c3cc(-c4ccsc4)ccc3NC(=O)[C@H]12)c1cccc(F)c1 [CBK289339]",
    "measured endpoint": "viability at 28.5 h, 10 µM",
    "reported result": "92.6%"
  },
  {
    "compound": "CN1CCN(c2nc(-c3ccc(-c4ccccc4)cc3)cnc2N)CC1 [CBK063421]",
    "measured endpoint": "viability at 28.5 h, 10 µM",
    "reported result": "106%"
  },
  {
    "compound": "Cc1ccc(-c2csc(=Nc3ccc(C(=O)O)cc3)n2Cc2ccccc2)cc1 [CBK296062]",
    "measured endpoint": "viability at 28.5 h, 10 µM",
    "reported result": "105%"
  },
  {
    "compound": "O=C(NC(=S)Nc1cccc2c(O)cccc12)c1ccc(-c2ccccc2)cc1 [CBK269022]",
    "measured endpoint": "viability at 28.5 h, 10 µM",
    "reported result": "85.3%"
  },
  {
    "compound": "Cc1c(CCC(=O)N2CCCC(C(=O)O)C2)c(=O)oc2c(C)c(O)ccc12 (stereo not shown) [CBK286764]",
    "measured endpoint": "viability at 28.5 h, 10 µM",
    "reported result": "88.5%"
  },
  {
    "compound": "O=C(O)CC1C(=O)NCCN1C1Cc2ccccc2C1 (stereo not shown) [CBK270089]",
    "measured endpoint": "viability at 28.5 h, 10 µM",
    "reported result": "88.2%"
  },
  {
    "compound": "Cn1ncnc1CCNS(=O)(=O)c1cccc(C(=O)N2CCCCC2)c1 [CBK306731]",
    "measured endpoint": "viability at 28.5 h, 10 µM",
    "reported result": "101%"
  },
  {
    "compound": "Cc1cccc(N2C(=O)SC(N(CC(=O)O)c3cccc(C)c3)C2=O)c1 (stereo not shown) [CBK287095]",
    "measured endpoint": "viability at 28.5 h, 10 µM",
    "reported result": "87.6%"
  },
  {
    "compound": "O=C1C2CCCCC2C(=O)N1c1ccc(Oc2ccc(Br)cc2)cc1 (stereo not shown) [CBK263531]",
    "measured endpoint": "viability at 28.5 h, 10 µM",
    "reported result": "116%"
  },
  {
    "compound": "CCCn1cc(NC(=O)C2(c3ccccc3)CCC2)ccc1=O [CBK306237]",
    "measured endpoint": "viability at 28.5 h, 10 µM",
    "reported result": "95.4%"
  },
  {
    "compound": "O=c1[nH]c(-c2ccccc2)nc2c1CN(Cc1cccs1)CC2 [CBK282330]",
    "measured endpoint": "viability at 28.5 h, 10 µM",
    "reported result": "87.1%"
  },
  {
    "compound": "CC1CCC(N(C)Cc2nc3sc4c(c3c(=O)[nH]2)CCC4)CC1 (stereo not shown) [CBK305876]",
    "measured endpoint": "viability at 28.5 h, 10 µM",
    "reported result": "88.7%"
  },
  {
    "compound": "CC1(C)CC(N(Cc2ccncc2)Cc2ccoc2)CC(C)(C)N1 [CBK283269]",
    "measured endpoint": "viability at 28.5 h, 10 µM",
    "reported result": "98.1%"
  },
  {
    "compound": "CC(=O)NCC(=O)Nc1cnc(-c2cccc(C(F)(F)F)c2)c(-c2cccnc2)n1 [CBK036809]",
    "measured endpoint": "viability at 28.5 h, 10 µM",
    "reported result": "103%"
  },
  {
    "compound": "CCn1cc(S(=O)(=O)Nc2ccc3c(ccn3C)c2)c(C)n1 [CBK282818]",
    "measured endpoint": "viability at 28.5 h, 10 µM",
    "reported result": "84.2%"
  },
  {
    "compound": "CC(C)n1c(=O)oc2cc(S(=O)(=O)NC(c3ccccc3)c3ccccc3)ccc21 [CBK286350]",
    "measured endpoint": "viability at 28.5 h, 10 µM",
    "reported result": "91.7%"
  },
  {
    "compound": "COc1cc2c(cc1OC)CN(C(=O)C1CCN(C)CC1)CC2 [CBK122744]",
    "measured endpoint": "viability at 28.5 h, 10 µM",
    "reported result": "93.2%"
  },
  {
    "compound": "Cc1ccccc1C(=O)NCCCNC(=O)c1ccccn1 [CBK269172]",
    "measured endpoint": "viability at 28.5 h, 10 µM",
    "reported result": "96.7%"
  }
]
